- assayed-target: T1, Recombinant DR3-Fc (R&D Systems, cat. #943-D3) (UniProt Q93038 25-199, limits assumed)
- T1 construct: dimeric MW~92 kDa; also called DR3 receptor; Fc-DR3; not shown: Fc part of the bought fusion
- T1 sequence (looked up): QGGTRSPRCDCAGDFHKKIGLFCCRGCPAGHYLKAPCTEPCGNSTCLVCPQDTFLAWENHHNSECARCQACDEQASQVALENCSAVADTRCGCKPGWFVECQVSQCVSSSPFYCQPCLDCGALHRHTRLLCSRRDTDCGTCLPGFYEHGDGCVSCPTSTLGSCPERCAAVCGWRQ
- experimental-details: ELISA, DR3-Fc immobilized
Reported EC50 by item:
Report the figure in nM without appending any unit label.

The examples below pair each entry with its known result.
# binder, EC50 / nM
measured = [
    ("TL1W137 (His-TEV-TL1A K240S) (ligand, also called TL1W137 (K240S)) HHHHHHENLYFQGLKGQEFAPSHQQVYAPLRADGDKPRAHLTVVRQTPTQHFKNQFPALHWEHELGLAFTKNRMNYTNKFLLIPESGDYFIYSQVTFRGMTSECSEIRQAGRPNKPDSITVVITKVTDSYPEPTQLLMGTKSVCEVGSNWFQPIYLGAMFSLQEGDKLMVNVSDISLVDYTSEDKTFFGAFLL", 336),
    ("TL1W42 (His-TEV-TL1A F114A) (ligand, also called TL1W42 (F114A)) HHHHHHENLYFQGLKGQEFAPSHQQVYAPLRADGDKPRAHLTVVRQTPTQHFKNQAPALHWEHELGLAFTKNRMNYTNKFLLIPESGDYFIYSQVTFRGMTSECSEIRQAGRPNKPDSITVVITKVTDSYPEPTQLLMGTKSVCEVGSNWFQPIYLGAMFSLQEGDKLMVNVSDISLVDYTKEDKTFFGAFLL", 77.7),
]

Notebook: TL1W123 (His-TEV-TL1A N207S) (ligand, also called TL1W123 (N207S)) HHHHHHENLYFQGLKGQEFAPSHQQVYAPLRADGDKPRAHLTVVRQTPTQHFKNQFPALHWEHELGLAFTKNRMNYTNKFLLIPESGDYFIYSQVTFRGMTSECSEIRQAGRPNKPDSITVVITKVTDSYPEPTQLLMGTKSVCEVGSSWFQPIYLGAMFSLQEGDKLMVNVSDISLVDYTKEDKTFFGAFLL , EC50 read as 26.8

Notebook: TL1W28 (His-TEV-hTL1A 72-251 E190G) (ligand, also called TL1W28 (E190G)) HHHHHHENLYFQGLKGQEFAPSHQQVYAPLRADGDKPRAHLTVVRQTPTQHFKNQFPALHWEHELGLAFTKNRMNYTNKFLLIPESGDYFIYSQVTFRGMTSECSEIRQAGRPNKPDSITVVITKVTDSYPGPTQLLMGTKSVCEVGSNWFQPIYLGAMFSLQEGDKLMVNVSDISLVDYTKEDKTFFGAFLL , EC50 read as 22.6

Notebook: TL1W127 (His-TEV-TL1A Y238A) (ligand, also called TL1W127 (Y238A)) HHHHHHENLYFQGLKGQEFAPSHQQVYAPLRADGDKPRAHLTVVRQTPTQHFKNQFPALHWEHELGLAFTKNRMNYTNKFLLIPESGDYFIYSQVTFRGMTSECSEIRQAGRPNKPDSITVVITKVTDSYPEPTQLLMGTKSVCEVGSNWFQPIYLGAMFSLQEGDKLMVNVSDISLVDATKEDKTFFGAFLL , EC50 read as 4620

Notebook: TL1W118 (His-TEV-TL1A S206A) (ligand, also called TL1W118 (S206A)) HHHHHHENLYFQGLKGQEFAPSHQQVYAPLRADGDKPRAHLTVVRQTPTQHFKNQFPALHWEHELGLAFTKNRMNYTNKFLLIPESGDYFIYSQVTFRGMTSECSEIRQAGRPNKPDSITVVITKVTDSYPEPTQLLMGTKSVCEVGANWFQPIYLGAMFSLQEGDKLMVNVSDISLVDYTKEDKTFFGAFLL , EC50 read as 41.7

Reference source: patent US20220056104A1
